Measured IC50 accompanies every entry in the list below.
# System tested: Delta-type opioid receptor (Mus musculus)
# Sequence (P32300 whole entry): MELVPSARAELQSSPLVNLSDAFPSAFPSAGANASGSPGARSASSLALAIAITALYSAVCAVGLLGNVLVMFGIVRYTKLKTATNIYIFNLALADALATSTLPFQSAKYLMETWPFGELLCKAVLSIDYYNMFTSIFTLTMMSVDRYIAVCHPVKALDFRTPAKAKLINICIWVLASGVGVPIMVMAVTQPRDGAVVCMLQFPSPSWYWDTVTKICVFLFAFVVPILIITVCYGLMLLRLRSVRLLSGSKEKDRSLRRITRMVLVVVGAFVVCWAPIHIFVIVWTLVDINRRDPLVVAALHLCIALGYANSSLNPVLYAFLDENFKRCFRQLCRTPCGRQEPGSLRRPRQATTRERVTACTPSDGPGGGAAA
# Assay notes: In vitro agonist activity against Opioid receptor delta in mouse vas deferens
Unit nM implied. Number only.

Task item: Entry C[C@@H](NC(=O)[C@@H](N)Cc1ccc(O)cc1)C(=O)NCC(=O)N[C@@H](Cc1ccccc1)C(=O)Nc1ccc(NC(=O)[C@H](Cc2ccccc2)NC(=O)CNC(=O)[C@@H](C)N[C@@H](N)Cc2ccc(O)cc2)cc1 : reported IC50 = ?
Reply: 35.6

Task item: I am curious: what IC50 value has been reported for C[C@@H](NC(=O)[C@@H](N)Cc1ccc(O)cc1)C(=O)NCC(=O)N[C@@H](Cc1ccccc1)C(=O)Nc1ccccc1NC(=O)[C@H](Cc1ccccc1)NC(=O)CNC(=O)[C@@H](C)N[C@@H](N)Cc1ccc(O)cc1 ?
Reply: 0.72

Would you kindly look at the next entry?
Task item: Give its IC50 value. Item: C[C@@H](NC(=O)[C@@H](N)Cc1ccc(O)cc1)C(=O)NCC(=O)N[C@@H](Cc1ccccc1)C(=O)N1CCN(C(=O)[C@H](Cc2ccccc2)NC(=O)CNC(=O)[C@@H](C)N[C@@H](N)Cc2ccc(O)cc2)CC1
Reply: 9.3

====

# Assay notes: In vitro inhibition of [3H]DPDPE binding to Opioid receptor delta
pIC50 for assorted compounds
Scale: pIC50 equals -log10([C]), with [C] in mol/L.

Task item: What value of pIC50 has been reported for the following compound? N[C@H](Cc1ccc(O)cc1)C(=O)N[C@H](Cc1ccccc1)C(=O)N1CCN(C(=O)[C@@H](Cc2ccccc2)NC(=O)[C@H](N)Cc2ccc(O)cc2)CC1
Reply: 6.40

Task item: I'd like to know its pIC50. The compound in question is C[C@@H](NC(=O)[C@@H](N)Cc1ccc(O)cc1)C(=O)NCC(=O)N[C@@H](Cc1ccccc1)C(=O)N1CCN(C(=O)[C@H](Cc2ccccc2)NC(=O)CNC(=O)[C@@H](C)N[C@@H](N)Cc2ccc(O)cc2)CC1
Reply: 9.19

Task item: Sample C[C@@H](NC(=O)[C@@H](N)Cc1ccc(O)cc1)C(=O)NCC(=O)N[C@@H](Cc1ccccc1)C(=O)Nc1ccccc1NC(=O)[C@H](Cc1ccccc1)NC(=O)CNC(=O)[C@@H](C)N[C@@H](N)Cc1ccc(O)cc1 — what was its pIC50?
Reply: 9.72

New cases:
Task item: May I ask what pIC50 has been recorded for C[C@@H](NC(=O)[C@@H](N)Cc1ccc(O)cc1)C(=O)NCC(=O)N[C@@H](Cc1ccccc1)C(=O)Nc1ccc(NC(=O)[C@H](Cc2ccccc2)NC(=O)CNC(=O)[C@@H](C)N[C@@H](N)Cc2ccc(O)cc2)cc1 ?
Reply: 8.50

Task item: So what does the record say about pIC50 for N[C@H](Cc1ccc(O)cc1)C(=O)N[C@H](Cc1ccccc1)C(=O)Nc1ccccc1NC(=O)[C@@H](Cc1ccccc1)NC(=O)[C@H](N)Cc1ccc(O)cc1 ?
Reply: 6.19

Task item: Requested read-out: pIC50. Entry: C[C@@H](NC(=O)[C@@H](N)Cc1ccc(O)cc1)C(=O)NCC(=O)N[C@@H](Cc1ccccc1)C(=O)NNC(=O)[C@H](Cc1ccccc1)NC(=O)CNC(=O)[C@@H](C)NC(=O)[C@@H](N)Cc1ccc(O)cc1 [BIPHALIN]
Reply: 8.59

Task item: I have this compound here, N[C@H](Cc1ccc(O)cc1)C(=O)N[C@H](Cc1ccccc1)C(=O)Nc1ccc(NC(=O)[C@@H](Cc2ccccc2)NC(=O)[C@H](N)Cc2ccc(O)cc2)cc1 , and I need its recorded pIC50.
Reply: 5.62

====

# Assay notes: In vitro inhibition of [3H]DAMGO binding to Opioid receptor mu
Assay readout: IC50
The reply must contain the numeric value and, after it, the unit.

For orientation, consider the following solved cases.
Task item: Given the molecule C[C@@H](NC(=O)[C@@H](N)Cc1ccc(O)cc1)C(=O)NCC(=O)N[C@@H](Cc1ccccc1)C(=O)N1CCN(C(=O)[C@H](Cc2ccccc2)NC(=O)CNC(=O)[C@@H](C)N[C@@H](N)Cc2ccc(O)cc2)CC1 , what is its reported IC50?
Reply: 0.48 nM

Task item: # input molecule: C[C@@H](NC(=O)[C@@H](N)Cc1ccc(O)cc1)C(=O)NCC(=O)N[C@@H](Cc1ccccc1)C(=O)Nc1ccc(NC(=O)[C@H](Cc2ccccc2)NC(=O)CNC(=O)[C@@H](C)N[C@@H](N)Cc2ccc(O)cc2)cc1 ; wanted: its IC50
Reply: 1.27 nM

Task item: Return reported IC50; argument: N[C@H](Cc1ccc(O)cc1)C(=O)N[C@H](Cc1ccccc1)C(=O)Nc1ccc(NC(=O)[C@@H](Cc2ccccc2)NC(=O)[C@H](N)Cc2ccc(O)cc2)cc1
Reply: 8200 nM

Task item: State the recorded IC50 for this entry: C[C@@H](NC(=O)[C@@H](N)Cc1ccc(O)cc1)C(=O)NCC(=O)N[C@@H](Cc1ccccc1)C(=O)NNC(=O)[C@H](Cc1ccccc1)NC(=O)CNC(=O)[C@@H](C)NC(=O)[C@@H](N)Cc1ccc(O)cc1 [BIPHALIN]
Reply: 1.4 nM

Task item: // returns reported IC50 for input N[C@H](Cc1ccc(O)cc1)C(=O)N[C@H](Cc1ccccc1)C(=O)N1CCN(C(=O)[C@@H](Cc2ccccc2)NC(=O)[C@H](N)Cc2ccc(O)cc2)CC1
Reply: 2700 nM

Task item: For the molecule N[C@H](Cc1ccc(O)cc1)C(=O)N[C@H](Cc1ccccc1)C(=O)Nc1ccccc1NC(=O)[C@@H](Cc1ccccc1)NC(=O)[C@H](N)Cc1ccc(O)cc1 , what IC50 is on record?
Reply: 3010 nM

Attention now turns to another entry.
Task item: Returns the measured IC50 for the input molecule. Input: C[C@@H](NC(=O)[C@@H](N)Cc1ccc(O)cc1)C(=O)NCC(=O)N[C@@H](Cc1ccccc1)C(=O)Nc1ccccc1NC(=O)[C@H](Cc1ccccc1)NC(=O)CNC(=O)[C@@H](C)N[C@@H](N)Cc1ccc(O)cc1
Reply: 1.93 nM
